Please go through the items and note down their furin cleavage Z-score.
# tested-target: furin, P09958;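 also: purified furin at 1:10 enzyme:substrate in 50 mM HEPES pH 7.5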
# Sequence (P09958 whole entry): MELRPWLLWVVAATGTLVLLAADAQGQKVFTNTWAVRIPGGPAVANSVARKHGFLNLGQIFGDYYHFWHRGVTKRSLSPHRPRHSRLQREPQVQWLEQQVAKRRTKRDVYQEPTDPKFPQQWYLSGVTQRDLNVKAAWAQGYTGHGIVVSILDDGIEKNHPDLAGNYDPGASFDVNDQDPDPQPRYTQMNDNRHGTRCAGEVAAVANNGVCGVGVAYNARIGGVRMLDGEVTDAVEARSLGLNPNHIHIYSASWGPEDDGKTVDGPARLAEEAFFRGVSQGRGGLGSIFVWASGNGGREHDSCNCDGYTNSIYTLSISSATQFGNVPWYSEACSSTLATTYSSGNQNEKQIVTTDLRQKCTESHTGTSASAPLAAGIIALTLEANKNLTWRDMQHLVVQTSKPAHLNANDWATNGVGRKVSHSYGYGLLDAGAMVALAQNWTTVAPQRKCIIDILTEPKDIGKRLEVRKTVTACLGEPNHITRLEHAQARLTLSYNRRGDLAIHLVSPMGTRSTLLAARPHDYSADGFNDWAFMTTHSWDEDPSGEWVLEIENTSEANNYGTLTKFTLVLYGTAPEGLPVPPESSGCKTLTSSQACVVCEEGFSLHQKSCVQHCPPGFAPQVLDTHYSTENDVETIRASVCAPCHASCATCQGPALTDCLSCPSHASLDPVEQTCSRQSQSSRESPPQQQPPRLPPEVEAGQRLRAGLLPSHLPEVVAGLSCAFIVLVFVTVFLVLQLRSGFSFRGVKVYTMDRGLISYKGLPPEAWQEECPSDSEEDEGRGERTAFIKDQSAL
# assay-text: furin cleavage Z-score vs untreated control; higher = more cleavage, active = 3.5 or more, inactive = 1 or less, 8 variable residues between constant flanks
# test-settings: 30 min
This is one part of the list. No count for the full screen is at hand.
Lab note: record the figure alone, no unit after it.

The measured furin cleavage Z-score associated with CADKMEECSQAGNASASA [HC1814] reads -0.546

The measured furin cleavage Z-score associated with CAREKKVTRTAGNASASA [FS-2914] reads 0.367

The measured furin cleavage Z-score associated with CARNKRESGKAGNASASA [FS-1757] reads 7.75

The measured furin cleavage Z-score associated with CAEVVTSYWVAGNASASA [HC2209] reads -1.27

Every entry's value here was drawn from the supplement of paper PMC3545927.
